molecular target: Folate receptor-alpha (FOLR1) (human) (UniProt P15328); assay: summary table; FRα affinity over CD3 affinity
Sequence (P15328 25-234): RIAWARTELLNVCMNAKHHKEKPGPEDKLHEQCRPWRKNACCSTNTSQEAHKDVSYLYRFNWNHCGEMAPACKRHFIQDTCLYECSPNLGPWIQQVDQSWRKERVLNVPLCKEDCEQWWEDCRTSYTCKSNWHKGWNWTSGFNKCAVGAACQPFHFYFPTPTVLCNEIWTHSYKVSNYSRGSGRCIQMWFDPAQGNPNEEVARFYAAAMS
property: Affinity ratio (FRα:CD3)

binder	reported.value
Fab1-HK129-LK172-BiFolate (Fab, V domains shown, pAF at LK172 (Kabat) conjugated to folate (oxime); pAF at HK129 (Kabat) conjugated to folate (oxime), From E. coli; carries two folates) VH: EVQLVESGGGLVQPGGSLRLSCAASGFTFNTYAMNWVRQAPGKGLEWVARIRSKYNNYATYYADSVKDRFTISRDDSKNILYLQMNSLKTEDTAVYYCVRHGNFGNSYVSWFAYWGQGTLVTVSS VL: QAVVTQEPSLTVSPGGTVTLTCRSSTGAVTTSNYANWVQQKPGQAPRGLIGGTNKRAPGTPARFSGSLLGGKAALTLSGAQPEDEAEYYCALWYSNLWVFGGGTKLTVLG	3.5
Fab1-HK129-Folate (Fab, V domains shown, pAF at HK129 (Kabat) conjugated to folate (oxime), From E. coli; also called Folate lead; parent control) VH: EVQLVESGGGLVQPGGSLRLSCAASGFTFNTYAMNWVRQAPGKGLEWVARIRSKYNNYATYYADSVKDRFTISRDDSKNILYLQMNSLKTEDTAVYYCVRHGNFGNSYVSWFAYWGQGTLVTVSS VL: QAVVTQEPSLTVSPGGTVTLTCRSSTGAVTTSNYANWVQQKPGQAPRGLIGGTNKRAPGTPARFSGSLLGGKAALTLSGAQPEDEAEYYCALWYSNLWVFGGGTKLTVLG	35
Fab1-HK129-20KPEG-Folate (Fab, V domains shown, pAF at HK129 (Kabat) conjugated to a bifunctional linker carrying folate and a linear 20K PEG (oxime), From E. coli) VH: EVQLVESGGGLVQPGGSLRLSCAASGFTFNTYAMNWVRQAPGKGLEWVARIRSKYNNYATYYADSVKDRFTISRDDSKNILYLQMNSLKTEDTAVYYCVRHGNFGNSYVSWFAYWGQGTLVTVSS VL: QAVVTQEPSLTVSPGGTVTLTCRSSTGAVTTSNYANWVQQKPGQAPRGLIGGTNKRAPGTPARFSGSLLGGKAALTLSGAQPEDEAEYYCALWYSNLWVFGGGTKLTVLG	26
Fab1-HK129-LL157-BiFolate (Fab, V domains shown, pAF at LL157 (Kabat) conjugated to folate (oxime); pAF at HK129 (Kabat) conjugated to folate (oxime), From E. coli; carries two folates) VH: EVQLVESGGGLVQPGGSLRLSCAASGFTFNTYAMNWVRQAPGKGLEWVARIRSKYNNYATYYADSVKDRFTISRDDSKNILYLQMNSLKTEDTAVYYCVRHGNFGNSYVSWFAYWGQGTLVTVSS VL: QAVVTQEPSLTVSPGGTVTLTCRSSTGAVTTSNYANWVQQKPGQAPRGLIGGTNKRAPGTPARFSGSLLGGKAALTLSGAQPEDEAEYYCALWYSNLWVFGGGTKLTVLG	10

Data origin, for the record: patent US20210317213A1
